The reported measurements were obtained from patent US20260209362A1.

Listed here are binders together with their documented ELISA binding hIL-12RB2/control.
Target: T1, biotinylated recombinant human IL-12Rβ2 (produced in-house) (human, UniProt Q99665 24-622, randomly biotinylated)
T1 construct: also called hIL-12RB2; human IL-12RB2
T1 sequence: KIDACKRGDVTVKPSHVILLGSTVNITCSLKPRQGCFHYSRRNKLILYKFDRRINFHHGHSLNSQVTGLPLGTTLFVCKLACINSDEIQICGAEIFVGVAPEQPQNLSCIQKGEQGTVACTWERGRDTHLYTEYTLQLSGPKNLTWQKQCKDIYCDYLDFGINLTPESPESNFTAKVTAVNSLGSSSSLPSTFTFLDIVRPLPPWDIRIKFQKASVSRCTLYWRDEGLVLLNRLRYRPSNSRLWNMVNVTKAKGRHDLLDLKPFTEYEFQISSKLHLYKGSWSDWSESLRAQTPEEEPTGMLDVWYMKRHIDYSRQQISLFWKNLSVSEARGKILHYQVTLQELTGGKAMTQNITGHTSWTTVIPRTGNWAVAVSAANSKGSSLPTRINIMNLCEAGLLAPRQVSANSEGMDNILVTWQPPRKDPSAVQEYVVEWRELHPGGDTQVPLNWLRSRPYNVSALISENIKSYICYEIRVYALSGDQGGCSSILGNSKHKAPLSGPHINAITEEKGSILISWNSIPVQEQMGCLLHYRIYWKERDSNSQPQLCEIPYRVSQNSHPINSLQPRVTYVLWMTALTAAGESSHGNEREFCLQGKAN
Assay: ELISA, periplasmic extract on biotinylated human IL-12Rβ2; control streptavidin-coated blocked wells

{"binder": "anti-IL-12Rβ2 VHH clone 3CAM11 (VHH, Tested as periplasmic extract; CDR3 group 27; also called 20508) VHH: QVQLQESGGGLVQAGGSLRLSCAASGRNLSTYAMGWIRQAPGKEREFVAAISWAGSTTYYADSVKGRFIISRDNAKNTLNLQMNSLKPEDTAVYYCAAPPYVTTTYYATPPSDIRDYHYWGQGTQVTVSS", "ELISA binding hIL-12RB2/control": "1.31 ratio to control"}
{"binder": "anti-IL-12Rβ2 VHH clone 2CAM45 (VHH, Tested as periplasmic extract; CDR3 group 47; also called 20485) VHH: QVQLQESGGGLVQAGGSLRLSCAASGFTFDDYAIGWFRQAPGKEREGISCISSSDYGTYYAGSVKGRFTISSDNAKNTVYLQMNSLKPEDTAVYYCAAEAISEYDCLGINYGMDYWGKGTQVTVSS", "ELISA binding hIL-12RB2/control": "0.974 ratio to control"}
{"binder": "anti-IL-12Rβ2 VHH clone 2CAM56 (VHH, Tested as periplasmic extract; CDR3 group 28; also called 20490) VHH: QVQLQESGGGEVQAGGSLRLSCVASGRTFSVYTTGWFRQAPGKERELVAGMSGTRTYYADSVKGRFTISRDNAKNTVYLQMNSLKPDDTAVYYCAERRYGGPSLVWDEYDYRGQGTQVTVSS", "ELISA binding hIL-12RB2/control": "0.918 ratio to control"}
{"binder": "anti-IL-12Rβ2 VHH clone 2CAM67 (VHH, Tested as periplasmic extract; CDR3 group 28; also called 20494) VHH: QVQLQESGGGEVQAGGSLRLSCVASGRTFSVYTTGWFRQAPGKEREFVAGMSGTRTYYADSVKGRFTISRDNAKNTVYLQMNSLKPDDTAVYYCAERRYGGPSLVWDEYDYRGQGTQVTVSS", "ELISA binding hIL-12RB2/control": "0.87 ratio to control"}
{"binder": "anti-IL-12Rβ2 VHH clone 2CAM47 (VHH, Tested as periplasmic extract; CDR3 group 27; also called 20487) VHH: QVQLQESGGGVVQEGASLRLSCAASGRNLSTYAMGWIRQAPGKEREFVAAISWAGSTTYYADSVKGRFIISRDNAKNTLNLQMNSLKPEDTAVYYCAAPPYVTTTYYATPPSDIRDYHYWGQGTQVTVSS", "ELISA binding hIL-12RB2/control": "0.969 ratio to control"}
{"binder": "anti-IL-12Rβ2 VHH clone 2CRM40 (VHH, Tested as periplasmic extract; CDR3 group 24; also called 20448) VHH: QVQLQESGGGLVQTGGSLRLSCAASGRTYAMAWFRQAPGKEREFAAVIIGGDRTYYANSVKDRFTISRDNAKETVYLQMNNLKPEDTAVYYCAANRRLYNSGRGYSQSEYEYWGQGTQVTVSS", "ELISA binding hIL-12RB2/control": "0.993 ratio to control"}
{"binder": "anti-IL-12Rβ2 VHH clone 2CAM39 (VHH, Tested as periplasmic extract; CDR3 group 46; also called 20482) VHH: QVQLQESGGGLVQAGGSLRLSCAASGRTFSTYAMGWFRQAPGKEREFVAAISWSGGSTYYADSVKGRFTISRDNAKNTGYLQMNSLKPEDTAVYVCAADAEDPILYGSSWNNRRKEYDYWGQGTQVTVSS", "ELISA binding hIL-12RB2/control": "1 ratio to control"}
{"binder": "anti-IL-12Rβ2 VHH clone 3CRM95 (VHH, Tested as periplasmic extract; CDR3 group 44; also called 20465) VHH: QVQLQESGGGLVQAGDFLRLSCVFSGGTFGDYSMGWFRQAPGKEREFVAAIRWSGDSTQYAEAVKGRFTISRDNAKSTVYLQMSSLKPEDTAVYYCAADPSYYIGPNHTPSRYRDWGQGTQVTVSS", "ELISA binding hIL-12RB2/control": "1.41 ratio to control"}
